Assay: Metabolic stability in C57BL/6 mouse liver microsomes assessed as remaining parent compound by UPLC-UV/MS analysis
Type: ADME, Microsome
# Stability per record follows
Answer with a number only, understood to be in %.

Known results for molecules:
O=C1CC(=O)N(c2ccc(NS(=O)(=O)c3cc(F)ccc3Cl)cc2)c2ccc3ccccc3c2N1    98
O=C1CC(=O)N(c2ccc(NS(=O)(=O)c3ccc(F)cc3Cl)cc2)c2ccc3ccccc3c2N1    93
Cc1cc(F)ccc1CS(=O)(=O)Nc1ccc(N2C(=O)CC(=O)Nc3c2ccc2ccccc32)nc1    57
O=C1CC(=O)N(c2ccc(NS(=O)(=O)c3cccnc3F)cc2)c2ccc3ccccc3c2N1    95
O=C1CC(=O)N(c2ccc(NS(=O)(=O)Cc3ccc(F)cc3Cl)cc2)c2ccc3ccccc3c2N1    58
Cc1cc(F)ccc1CS(=O)(=O)Nc1ccc(N2C(=O)CC(=O)Nc3c2ccc2ccccc32)cc1    64

Recorded Stability of `Cc1cc(F)ccc1S(=O)(=O)Nc1ccc(N2C(=O)CC(=O)Nc3c2ccc2ccccc32)cc1` , please. 93

Recorded Stability of `Cc1cc(F)ccc1CS(=O)(=O)Nc1ccc(N2C(=O)CC(=O)Nc3c2ccc2ccccc32)cn1` , please. 67

Recorded Stability of `O=C1CC(=O)N(c2ccc(NS(=O)(=O)Cc3ccccc3Cl)cc2)c2ccc3ccccc3c2N1` , please. 71
